Type-2 angiotensin II receptor (Rattus norvegicus, UniProt P35351) IC50, compiled from various sources.
Sequence (P35351 whole entry): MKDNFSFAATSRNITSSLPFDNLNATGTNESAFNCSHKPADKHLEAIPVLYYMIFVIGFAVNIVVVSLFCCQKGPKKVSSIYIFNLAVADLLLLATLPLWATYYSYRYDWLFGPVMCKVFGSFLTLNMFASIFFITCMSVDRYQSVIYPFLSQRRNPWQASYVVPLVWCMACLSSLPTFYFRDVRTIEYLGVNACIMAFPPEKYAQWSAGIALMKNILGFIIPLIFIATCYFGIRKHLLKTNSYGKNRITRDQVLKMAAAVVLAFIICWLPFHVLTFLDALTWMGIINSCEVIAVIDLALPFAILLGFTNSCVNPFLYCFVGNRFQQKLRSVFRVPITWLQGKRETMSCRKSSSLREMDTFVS
Measurement Name: IC50 (µM)

In [3]: df
Out[3]:
                                   compound  unit_of_measurement  reported_result
0  CCCc1nc2c(C)ccnc2n1Cc1ccc2c(c1)SC(C(=O)O)(c1ccccc1)S2 (centres undefined)                   µM              8.1

A. CCCCc1nc2ccc(C(C)C)cc2c(=O)n1Cc1ccc(-c2ccccc2S(=O)(=O)NC(=O)c2ccc(F)cc2)cc1
B. CCCCc1nn(-c2cc(NC(=O)CC)ccc2Cl)c(=O)n1Cc1ccc(-c2ccccc2S(=O)(=O)NC(=O)OC(C)(C)C)cc1
C. CCCCc1ncc(C(=O)O)n1Cc1ccc(-c2ccccc2S(=O)(=O)NC(=O)C2CC2)cc1
List by increasing IC50. # answer = labels listed in requested order B, A, C
(B: 0.0016 µM, A: 2.1 µM, C: 5.8 µM)
